- TARGET UNDER TEST: CaMKIIδ (Ca2+/calmodulin-dependent protein kinase II delta) (Homo sapiens, UniProt Q13557)
- Sequence (Q13557 2-499): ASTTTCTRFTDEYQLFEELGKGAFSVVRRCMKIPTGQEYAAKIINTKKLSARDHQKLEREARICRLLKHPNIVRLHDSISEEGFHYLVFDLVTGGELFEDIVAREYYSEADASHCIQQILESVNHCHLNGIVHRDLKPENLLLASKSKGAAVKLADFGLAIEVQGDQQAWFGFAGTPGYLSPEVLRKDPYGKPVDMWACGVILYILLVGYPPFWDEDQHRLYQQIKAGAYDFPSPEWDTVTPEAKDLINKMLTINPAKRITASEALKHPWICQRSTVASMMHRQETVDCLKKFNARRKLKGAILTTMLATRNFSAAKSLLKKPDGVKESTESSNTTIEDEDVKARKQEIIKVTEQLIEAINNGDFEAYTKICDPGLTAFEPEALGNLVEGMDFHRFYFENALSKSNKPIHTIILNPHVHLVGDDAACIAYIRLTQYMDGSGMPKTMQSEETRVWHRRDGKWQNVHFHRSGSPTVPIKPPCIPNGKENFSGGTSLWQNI
- ASSAY OVERVIEW: continuous coupled spectrophotometric kinase assay with autocamtide-3
MEASUREMENT KIND: pIC50
Remember the convention: pIC50 equals -log10 of concentration in molar.

INPUT: pIC50 lookup needed for COc1ccc(S(=O)(=O)N(CCO)c2ccccc2CN(C)C/C=C/c2ccc(Cl)cc2)cc1 , thanks.
OUTPUT: 5.85
